Biological target: T1, human TREM2 (human, UniProt Q9NZC2 19-230)
T1 sequence: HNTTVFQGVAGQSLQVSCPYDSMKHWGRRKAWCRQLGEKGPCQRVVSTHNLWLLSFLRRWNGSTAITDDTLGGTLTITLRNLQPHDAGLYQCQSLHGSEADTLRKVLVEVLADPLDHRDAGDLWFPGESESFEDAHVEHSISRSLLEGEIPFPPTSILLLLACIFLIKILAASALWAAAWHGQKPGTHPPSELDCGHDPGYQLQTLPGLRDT
Assay: cell-based or functional assay
reportedProperty: Fold over isotype control at 66 nM

(Q) Quick one: Fold over isotype control at 66 nM for EOS006170 (antibody, V domains shown) VH: QVQLQESGPGLVKPSGTLSLTCAVSGGSISSSNWWSWVRQPPGKGLEWIGEIYHSGSTNYNPSLKSRVTISVDKSKNQFSLKLSSVTAADTAVYYCARDTKYQAGMDVWGQGTTVTVSS VL: DIQMTQSPSSLSASVGDRVTITCQASQDISNYLNWYQQKPGKAPKLLIYDASNLATGVPSRFSGSGSGTDFTFTISSLQPEDIATYYCQQYVVFPTFGGGTKVEIK ?
(A) 1.31 fold
